tested_target: VMAT2 (Rattus norvegicus, UniProt Q01827)
Construct: conducted using isolated synaptic vesicle preparations; from tissue; host or cells: rat striatum, isolated synaptic vesicles
Sequence (Q01827 whole entry): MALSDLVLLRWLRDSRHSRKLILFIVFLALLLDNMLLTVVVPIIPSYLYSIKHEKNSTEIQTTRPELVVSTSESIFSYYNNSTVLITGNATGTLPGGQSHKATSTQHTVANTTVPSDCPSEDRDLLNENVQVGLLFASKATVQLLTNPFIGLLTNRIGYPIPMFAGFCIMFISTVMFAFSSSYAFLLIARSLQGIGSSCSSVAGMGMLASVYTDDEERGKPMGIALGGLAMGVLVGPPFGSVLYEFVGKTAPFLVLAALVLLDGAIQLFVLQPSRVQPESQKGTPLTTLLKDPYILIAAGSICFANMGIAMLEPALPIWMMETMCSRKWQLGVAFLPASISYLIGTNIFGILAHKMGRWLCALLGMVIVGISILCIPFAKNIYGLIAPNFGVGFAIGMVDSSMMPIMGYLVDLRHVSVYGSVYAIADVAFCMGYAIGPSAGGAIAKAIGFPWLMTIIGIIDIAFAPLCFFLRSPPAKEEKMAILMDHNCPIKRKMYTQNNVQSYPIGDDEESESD
method: [3H]Dihydrotetrabenazine ([3H]DTBZ) binding assay, vesicular preparation
condition_info: rat brain synaptic vesicles, 3 nM [3H]DTBZ; read-out: Inhibition of [3H]DTBZ binding (Ki) VMAT2
Sorting guide: entries reporting Ki beneath 400 nM go in the label 1 pile, the rest go in the label 0 pile.

Qu. Hi there! Is Ki for COc1ccc(CCN2CCC(CCc3ccccc3)CC2)cc1OC [Compound 3] below 400 nM, do you know?
Ans. label 0

###

I'd be grateful if you could share measured pKi for these entries.
tested_target: VMAT2 (Rattus norvegicus)
Construct: conducted using isolated synaptic vesicle preparations; from tissue; host or cells: rat striatum, isolated synaptic vesicles
method: [3H]Dopamine ([3H]DA) uptake assay, vesicular preparation
Type: biochemical
condition_info: rat striatal synaptic vesicles, 0.1 μM [3H]DA; read-out: [3H]DA Uptake (Ki) VMAT2
One number for each entry, as −log10 of the molar value.

Below, 3 compounds whose answers are already recorded.
Clc1ccccc1CCN1CCN(CCc2ccccc2)CC1 :: 7.20
COc1ccc(CCC2CCN(CCc3ccccc3)CC2)c(F)c1 :: 6.92
COc1cccc(CCN2CCC(CCc3cc(F)cc(F)c3)CC2)c1 :: 7.55

Please look at the items below and tell me pKi for each one, in order.
1. COc1cccc(CCC2CCN(CCc3ccccc3OC)CC2)c1
2. COc1cccc(CCN2CCC(CCc3ccccc3)CC2)c1

Ans.
7.40
7.66

Qu. Reported pKi for COc1ccc(CCN2CCC(CCc3ccccc3OC)CC2)cc1 : what is it?
Ans. 7.37

###

tested_target: serotonin transporter (SERT) (Rattus norvegicus)
Sequence (P31652 whole entry): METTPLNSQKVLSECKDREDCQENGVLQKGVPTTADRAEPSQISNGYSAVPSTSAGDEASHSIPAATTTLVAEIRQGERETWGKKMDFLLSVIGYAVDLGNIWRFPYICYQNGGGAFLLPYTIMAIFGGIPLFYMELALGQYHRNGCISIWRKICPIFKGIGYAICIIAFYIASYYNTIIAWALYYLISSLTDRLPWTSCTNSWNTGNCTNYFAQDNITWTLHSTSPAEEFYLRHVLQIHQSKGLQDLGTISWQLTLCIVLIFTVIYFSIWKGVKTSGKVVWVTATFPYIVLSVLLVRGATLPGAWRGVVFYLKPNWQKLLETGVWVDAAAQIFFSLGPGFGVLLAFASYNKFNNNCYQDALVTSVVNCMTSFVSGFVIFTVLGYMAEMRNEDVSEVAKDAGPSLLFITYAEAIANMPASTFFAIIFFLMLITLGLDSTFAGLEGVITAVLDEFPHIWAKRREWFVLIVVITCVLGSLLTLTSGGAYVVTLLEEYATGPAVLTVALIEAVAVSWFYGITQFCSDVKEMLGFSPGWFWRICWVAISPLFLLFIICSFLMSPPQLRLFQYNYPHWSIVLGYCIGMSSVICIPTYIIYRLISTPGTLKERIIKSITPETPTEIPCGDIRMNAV
method: [3H]5-HT uptake assay, striatal synaptosomal preparation
condition_info: rat striatal synaptosomes, GBR-12935 (100 nM) in buffer; read-out: SERT [3H]5-HT Uptake Inhibition Mean ± SEM (Ki)
I'd be grateful if you could share measured pKi for these entries.
Give bare numbers, as −log10 of the molar value.

Below, 8 molecules whose answers are already recorded.
COc1cccc(CCN2CCC(CCc3ccccc3)CC2)c1 :: 5.94
COc1cccc(CCN2CCN(CCc3cccc(OC)c3)CC2)c1 :: 5.44
COc1ccccc1CCN1CCN(CCc2ccccc2OC)CC1 :: 5.80
COc1ccc(CCC2CCN(CCc3ccccc3Cl)CC2)cc1 :: 5.38
COc1cccc(CCN2CCN(CCc3ccccc3)CC2)c1 :: 5.16
Fc1ccc(CCN2CCN(CCc3ccc(F)cc3)CC2)cc1 :: 5.31
COc1ccc(CCN2CCN(CCc3ccccc3)CC2)cc1 :: 5.43
COc1ccccc1CCN1CCN(CCc2ccccc2)CC1 :: 5.59

Please look at the items below and tell me pKi for each one, in order.
1. Fc1ccc(CCN2CCN(CCc3ccccc3)CC2)cc1
2. Clc1ccccc1CCN1CCN(CCc2ccccc2Cl)CC1
3. COc1ccccc1CCC1CCN(CCc2ccccc2OC)CC1
4. c1ccc(CCN2CCN(CCc3ccccc3)CC2)cc1
5. COc1ccccc1CCC1CCN(CCc2ccccc2)CC1
6. COc1ccccc1CCC1CCN(CCc2ccc(F)cc2)CC1

Ans.
1: 5.35; 2: 5.48; 3: 6.92; 4: 4.94; 5: 6.12; 6: 6.24

###

tested_target: VMAT2 (Rattus norvegicus)
Construct: conducted using isolated synaptic vesicle preparations; from tissue; host or cells: rat striatum, isolated synaptic vesicles
method: [3H]Dopamine ([3H]DA) uptake assay, vesicular preparation
Format: biochemical
condition_info: rat striatal synaptic vesicles, 0.1 μM [3H]DA; read-out: [3H]DA Uptake (Ki) VMAT2
I'd be grateful if you could share measured Ki for these entries.
Answers are plain numbers, in nM.

COc1ccc(CCN2CCC(CCc3ccccc3)CC2)cc1OC :: 56
COc1ccccc1CCN1CCC(CCc2ccccc2)CC1 :: 30

Please look at the items below and tell me Ki for each one, in order.
1. COc1ccc(CCN2CCCN(CCc3ccc(OC)cc3)CC2)cc1
2. Fc1ccc(CCN2CCC(CCc3ccccc3)CC2)cc1
3. COc1ccc(CCC2CCN(CCc3cccc(OC)c3)CC2)cc1

Ans.
[250, 32, 75]

Please look at the items below and tell me Ki for each one, in order.
1. COc1cccc(CCN2CCC(CCc3ccc(F)cc3F)CC2)c1
2. COc1ccccc1CCN1CCC(Cc2ccccc2)CC1
3. COc1cccc(CCN2CCC(Cc3ccccc3)CC2)c1
4. COc1ccc(CCC2CCN(CCc3ccccc3OC)CC2)c(F)c1
5. COc1ccc(CCC2CCN(CCc3ccccc3)CC2)cc1

Ans.
1. 29
2. 130
3. 77
4. 76
5. 110
